molecular target: Nuclear receptor subfamily 1 group I member 2 (Rattus norvegicus); test: qHTS assay for small molecule activators of the rat pregnane X receptor (rPXR) signaling pathway (AID 651751); details: rPXR reporter cells, luciferase (One-Glo), 24 h; further: 0% is about no effect
Readout Kind: max response (%)
Write it as a number; the unit % goes unstated.

Guide cases for max response, answers given:
{"columns": ["Compound", "max response, %"],
 "data": [
  ["Cl/C=C/CCl", -4.52],
  ["CC(=O)NNc1ccccc1", -6.67],
  ["CCN(CC)N=O", 3.34],
  ["C=CC=O", 1.01],
  ["Nc1cc(Cl)cc(Cl)c1", -0.532]
]}

# max response (compound: c1ccc2c(c1)CCNC2 ) is -0.393

# max response (compound: C=C(Cl)CCl ) is 1.93

# max response (compound: CCCCC#N ) is -0.572

----------
assay: qHTS assay for small molecule antagonists of retinoid X receptor alpha signaling (AID 588546); conditions: HEK293T RXRa-UAS-bla, beta-lactamase ratio, antagonist mode; measured here: W530 green channel, cytotoxicity proxy;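 further: cells stimulated with 9-cis-retinoic acid as agonist; on the % scale 0 is the no-effect control and ±100 the full control effect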
Records with an inconclusive call do not appear.
A collection of compounds and their measured max response
Write it as a number; the unit % goes unstated.

{"columns": ["Compound", "Val"],
 "data": [
  ["CSSC", -12.8],
  ["ClCCBr", -4.86],
  ["O=C(O)C(Cl)(Cl)Br", 1.14],
  ["O=[N+]([O-])c1cccc2c([N+](=O)[O-])cccc12", -12.9],
  ["CCCCOC(=O)c1ccccc1N", -0.876],
  ["CC(C)(OOC(C)(C)c1ccccc1)c1ccccc1", -11],
  ["CC(=O)CCC(C)=O", -1.17],
  ["N#CC(O)c1ccccc1 (stereo not drawn)", -9.69],
  ["COC(=O)c1ccccc1N", 0.965],
  ["BrCC(Br)C1CCC(Br)C(Br)C1 (stereo not drawn)", -6.79]
]}

# max response (compound: ClCc1ccccc1 ) is -2.86

# max response (compound: CCC/C=N/O ) is -10.3

# max response (compound: c1ccc2c(c1)CCNC2 ) is -4.26

# max response (compound: CC(C)CON=O ) is -4.96

# max response (compound: ClC=CCl ) is -4.87

# max response (compound: ClC(Cl)c1ccccc1 ) is 4.33

# max response (compound: OCCBr ) is 8.33

----------
test: Cell Viability - LYMP2-026 (AID 989); details: LYMP2-026 lymphoblastoid cell viability, qHTS; series mostly up to 92.2 µM;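 further: cells exposed to compound for 24 h at 37 °C; on the % scale 0 is the no-effect control and ±100 the full control effect; nearly all actives have a fitted effect of over 50% in size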
Inconclusive results are not listed. Activity calls are given as the source filed them. Calls follow the shape of the dose curve; as a rule, active = well fitted cell-killing curve with a large enough effect; inconclusive = small, poorly fitted or top-dose-only effect; inactive = flat fitted curve, though single readings scatter.
Readout Kind: outcome

Guide cases for outcome, answers given:
{"columns": ["Compound", "outcome"],
 "data": [
  ["ClC(Cl)(Cl)C(Cl)(Cl)Cl", "inactive"],
  ["c1ccc(N=NNc2ccccc2)cc1", "inactive"],
  ["c1ccoc1", "inactive"],
  ["Nc1ccc([N+](=O)[O-])cc1[N+](=O)[O-]", "inactive"],
  ["CCOP(=S)(OCC)Oc1nc(Cl)c(Cl)cc1Cl", "inactive"]
]}

# outcome (compound: CCC[N+](=O)[O-] ) is inactive

# outcome (compound: C=C(Cl)CCl ) is inactive

# outcome (compound: CCBr ) is inactive

# outcome (compound: CCCC[N+](=O)[O-] ) is inactive

# outcome (compound: CCCCCOC(=O)c1ccccc1C(=O)OCCCCC ) is inactive

# outcome (compound: Clc1ccc(C(Cl)(Cl)Cl)cc1Cl ) is inactive

# outcome (compound: O=C(O)C(Cl)(Cl)Br ) is inactive

# outcome (compound: Cc1ccc(N)cc1Cl ) is inactive

# outcome (compound: O=[N+]([O-])c1cccc2c([N+](=O)[O-])cccc12 ) is inactive

# outcome (compound: C/C=C/C=O ) is inactive

# outcome (compound: O=[N+]([O-])c1ccc(Cl)c(Cl)c1Cl ) is inactive

Reference source: PubChem BioAssay (NCATS)
